Cited source: patent US20220281859A1

System: DU4475
Assay name: Cancer cell proliferation assay as a single agent (cell viability)
Assay type: cell-based
Measurement parameters: Homo sapiens, DU-4475; DU4475 breast carcinoma, Rb Negative, 144H treatment
Experimental readout: IC50 (nM)

[1] CC(C)N1CCOc2c(F)cc(-c3nc(Nc4ccc5[nH]nc(C6CCNCC6)c5c4)ncc3F)cc21
[2] CC(C)N1CCOc2c(F)cc(-c3nc(Nc4nc5cc(C6=CCNCC6)ccc5s4)ncc3F)cc21
Returns the identifier with the smallest measured IC50 among 1 and 2 . Respond using the label that marks the chosen record.
2

----------
Tested target: UniProtKB Q00534
Sequence (Q00534 whole entry): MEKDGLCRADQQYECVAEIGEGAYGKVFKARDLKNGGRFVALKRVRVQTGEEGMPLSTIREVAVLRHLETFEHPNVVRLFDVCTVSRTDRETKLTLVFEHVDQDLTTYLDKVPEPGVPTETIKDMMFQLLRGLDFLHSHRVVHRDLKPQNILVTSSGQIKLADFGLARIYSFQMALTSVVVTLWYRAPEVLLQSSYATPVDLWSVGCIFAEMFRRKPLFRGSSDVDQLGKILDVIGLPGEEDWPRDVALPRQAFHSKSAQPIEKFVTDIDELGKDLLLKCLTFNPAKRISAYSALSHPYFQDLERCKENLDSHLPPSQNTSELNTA
Sequence (P24385 whole entry partner): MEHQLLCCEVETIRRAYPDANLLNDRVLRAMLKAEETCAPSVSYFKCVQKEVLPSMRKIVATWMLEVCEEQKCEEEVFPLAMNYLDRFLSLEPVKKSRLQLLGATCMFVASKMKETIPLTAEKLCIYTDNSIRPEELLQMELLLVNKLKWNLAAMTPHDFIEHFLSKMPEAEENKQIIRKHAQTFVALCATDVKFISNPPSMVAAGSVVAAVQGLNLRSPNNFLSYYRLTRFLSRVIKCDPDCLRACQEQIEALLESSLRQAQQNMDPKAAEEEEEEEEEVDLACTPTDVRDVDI
pIC50: −log10 of the molar value.
Experimental readout: pIC50

Field: pIC50 (UniProtKB Q00534). Entry: CC(C)N1CCOc2c(F)cc(-c3nc(Nc4nc5cc(C6=CCNCC6)ccc5s4)ncc3F)cc21
< 6.70
